- testName: soluble fraction after stress (log2 fold change); higher = more stays soluble; pooled small domains, quantitative proteomics
- conditionDetails: stress: 50 degC
Recorded measurements of soluble fraction (log2), one per entry
No unit in the answer, only the number.

// below: answered sequences
{"sequenceChain": "HMEEVYVPDIRDKSISDAKKILSQMGLKYRIEGEGYDDSTVIKDQTPKPGALLAKDSVVIAYINE", "soluble fraction (log2)": 0.126}
{"sequenceChain": "HMATIIGSIGIVTQKVGLTGVPGRVYVNNESWAAISANGKEIENDTQVIVVKIDGATLIIEKKG", "soluble fraction (log2)": -1.47}
{"sequenceChain": "HMAPRQDIAYYTVKPGDTVLAIAEKFGLQPETLMWSNSIIEQNPDRLSIGDELRILPVDGVLHVVK", "soluble fraction (log2)": 0.0612}
{"sequenceChain": "HMESILDDFPGLGEKRKKALLEHFGSISKIKAATVGQLREVDGIGFETAAALREFLDANFPA", "soluble fraction (log2)": 0.158}

Return reported soluble fraction (log2). Input sequence: HMTSESWAEKSRSLAAAGLIVMGRDAQLKIEGLTNLDPLIEAATASSTRLLTGQTIDELLTIVP -0.265

Hello, please tell me recorded soluble fraction (log2) for this one: HMENFSTLFSRLKEERGLSNKQISSFTGAPIKEVKKWESGMGIPTEKRIVAALEGILGSEISKAI -0.0124

Look up soluble fraction (log2) of HMIDAKTTLQELTQKSGKKPEYRLIKIEGPDHLRRFTVEVFIDGQSMGTGTGHSKKEAEQNAANFALKNLQ and report it. 0.0235

Look up and state reported soluble fraction (log2) for HMSIPVLKDGTYESWGNEKVYKVGDRVMVGSNGYVAKWWNQDETPEKAIINPNDSPWRPMTESEIMEVLK -0.0154

Consider the sequence HMPKKLIWERTTSKLQLYITQDRYELKTPLMTIPFTSKSKMMVYLQQRYHLDMQEYRQIYDAG and give its recorded soluble fraction (log2). -2.21

Kindly indicate its recorded soluble fraction (log2). Item: HMAALTADEAKQIALKHAGVAESDVQRLKVEQDRDDGRLLYEVEWDVGRTEYSYEIDANTGDILNYEKDV 0.254

Give me measured soluble fraction (log2), please, for this sequence: HMSTLSIHIPDKFAGQRLDQALAELYSQFSRSRLQQWLNDGELLVDGKSVKANKKVLGGEFIQILK -0.861

State its soluble fraction (log2): HMLTYPEHVRLRMIELRKTRSLSQSEFGTYLGLSYQTISSLELGRHEWSLAHIQTALLRFELPPNYF -4.92

Given the sequence HMNPGNTESFPVYQKRLGEIIQTLAGKKGQDINSPEVKELVGEYDFLTKQMFQLPDATSMVMEIATAYRN , write its reported soluble fraction (log2). 0.0462

Recall and state the measured soluble fraction (log2) for HMNQYIFVLNEKGARITSFVDNTIPKEELIALAKQDYPNAADYIYSADGDSMLDEFMRGKLYVNGQFVAA . -0.69

State its soluble fraction (log2) for this sequence: HMGQTDTIIKTTTDLYYEMSTMSDDDKLVVAQTLRDVWMAVGRWSGKLSKKQREKVAEVKRVLGE -0.833

Look up soluble fraction (log2) of HMSKMTLGENLRLLRREKGLSQEQVAQTLFVARQTISKWENGQAEPGVESLKALAKLYGVSLDRLVGA and report it. -0.0483

Item HMKNKFYEEFSDYIFKHTGIHYAEANYYQLDARINKLMKFLETSDENDVLKAIQGGAVKDQRVHQMIVDLA : provide soluble fraction (log2) -1.7

----------
- testName: soluble fraction after stress (log2 fold change); higher = more stays soluble; pooled small domains, quantitative proteomics
- conditionDetails: stress: 50 degC
Output t for soluble fraction (log2) not less than -0.07; output f otherwise.

{"sequenceChain": "HMNVDALIGTKGIVVQPIRPFAVGQVKVNGQVWSAVGKTPETDIEQGREVKVHAIEGVKLVVTPT", "classification": "t"}
{"sequenceChain": "HMVTTTEAAKMLLVNAGHDVIKDGLTGASWASNTMKLADADGLLASVATKPNDALPRQYAAQMIYN", "classification": "t"}
{"sequenceChain": "HMSTRLIGEIGVVTKDLGAGLKENGSIQIGREEWPAETKDMEHIPMGTRVKVIHIEGTRLVVEA", "classification": "f"}
{"sequenceChain": "HMIKSMTGYGSAKGTVEGIEVSVELKSVNNKFLDTSIRLPRSFLFAEETIKQAVSSHISRGKVDVFVSVDS", "classification": "t"}
{"sequenceChain": "HMTDWNTVEKETLSAIQKVLSGQASWIDLSPADHSIRHMQHEMVQQAGLISQSYGKEPMRRIRIYQNP", "classification": "t"}
{"sequenceChain": "HMAGITLHAEEGRVRIRSQSEGLVKVLDAMGREQASWPLRSKGWWFFLTEGWAPGTYFVKTESGETQRFLV", "classification": "t"}
{"sequenceChain": "HMLKGTVKWFNESKGFGFIEQEEGKDVFVHYSAITGSGFKTLNEGDKVQFEIVDGPKGPAAANVSK", "classification": "t"}

Now look at this one.
Decide: is the reported value of soluble fraction (log2) for HMNPYLWQRVRLLFSNVGVINNSATVDLVFSAPKGVLTEDLANNFSAALVKKGKEELGLDDIKITISVIPN equal to or greater than -0.07? f

----------
- testName: soluble fraction after stress (log2 fold change); higher = more stays soluble; pooled small domains, quantitative proteomics
- conditionDetails: stress: 50 degC
valueKind: soluble fraction (log2)
When you answer, write just the number.

Below, 10 sequences whose answers are already recorded.
{"sequenceChain": "HMTPTITNALEEAEKAVSEVQEGKKEIELTPQGAYIRHLQHAIADRYGISSTSTGRDPKRKVIIY", "dataValue": -0.108}
{"sequenceChain": "HMTNTYEVIKNDIIFGVLPPLKKLKLLELKKKYITSVSTLREILSRLSGDGFVVSKEQKGFYVSAV", "dataValue": -0.00437}
{"sequenceChain": "HMSTQVPDVKERSQEEARSILESAGFKVTPAVKTEDSADIAKDMVTKTDPAAGQSVPKGTTITIYVSS", "dataValue": 0.149}
{"sequenceChain": "HMNLAISAYQQLKSDIIRGVYAPGEKLLMSRLKVRYGLGIGPMREALSQLVSEHLVTAASQRGYRVAGM", "dataValue": -1.64}
{"sequenceChain": "HMGEQVAVPDVTKKSVREVNNILTSAGLRLQIEGSGISVRQDPPADTMVAPDTVVTVSFEPP", "dataValue": 0.168}
{"sequenceChain": "HMGYKDIDKLSGVDLAIYRFIVEHDEQIPYMRVRELARGAHVSNSSVMRFIRKIGYDSFPEFKVSLRS", "dataValue": 0.0102}
{"sequenceChain": "HMRRARVAGKGHFTGEDAMAVYRELEALFGETETLYLPGHRPFEAVLSKLALIGVPEKNTVPYTFAFVET", "dataValue": -0.433}
{"sequenceChain": "HMAGNNTATKEIAELLIAKGADVNAMNLSPPGREIGGMTPLDMAILGNRNEIADLLRKHGGRTQKELKAE", "dataValue": 0.356}
{"sequenceChain": "HMQQLIEFSVTKGHPWINKKIMDLNLPENQLILTIQREGHVVSAEGKTIILENDRITISTDDR", "dataValue": -0.0156}
{"sequenceChain": "HMTAEASELRERIRAAMATLPPAQQRVIELAYFEGLTQREIAALLNEPLGTIKTRMRLGMRKLKDVL", "dataValue": -0.747}

Find the measured soluble fraction (log2) of HMISFHEYLTQLLDEKGLTKAQVITDSNIQKNYGYQIFDGSKTPSRDKVIAIALAMQLTLDEANRLLHLSN and report it. -1.47

Identify the reported soluble fraction (log2) for the following entry. HMLDSGNPILPYKLSLLANVDIRTVRNAISAGELVAFKSEFDGEVYVENGSARRWLHGRRGFKPTLK -0.84

Query soluble fraction (log2) for HMTTTPAERQRTILRSLNRVDPVSVDALARLTGVSVVTIRRDLSDLASRDLIRRVHGGALLPTR -0.917

Give a short answer stating reported soluble fraction (log2) for HMSHDTLVYRLAQMLVKLNQGEKLDPQQLAEEFGVNLRTIQRDLNVRFAYLQLEKTDGRYHLDPTFL . -0.999

Complete the entry with soluble fraction (log2) for HMDRETEEYELIRAKLEWLYQKQTGTIRNQTAKILHHLEIAKEEGNYYLYLKIKEEAKQWLVQASMYLD -0.231

For the sequence HMKTKTIMSTGAREDLVKMINEYYYSKNYIITEDNRIYNTKTEKFMDDLSVKFYRGRWKVIRN , report soluble fraction (log2). -0.813

Give the reported soluble fraction (log2) for this sequence. HMVLTYYSVLGVKTDATTEEIKSTYKQLAIRNHPDRGGSEEVMKMINLAAEILSDPKSRKEYDLSLDA -2.87

Read the entry HMIIIMKPNASEEAVRKVTHIIESKGLQVHLSKGSQVTIVGVVGDKTRLQGSNIEISEGVDKVVAVT and write its reported soluble fraction (log2). -0.0139

Using the record for HMKEIKAPNKINAHLIEEWRSQHPTELFPEEKVDLIYYKGEEYYFVIEEKNELGEIEEWYFAYDGGIDYV , state its measured soluble fraction (log2). 0.106

// fetch soluble fraction (log2) given entry HMKGQNRSEITAGARVKVVQKQDQRTGALTEGIVRDILTRSPHHPHGIKVRLESGIVGRVKDVL 0.0363

Please look at this sequence and report its soluble fraction (log2): HMFSDDEINRLKARDSILVNLRDSEKQVWELYTDGKTVQNIANQLNKHKQSISATIINIKNKISRKQNMLK -0.534

Please give measured soluble fraction (log2) of the following entry: HMKTMEQSYIGRKIILDENVEDSALIKFEGIYWTFKSVSGPLKKGTEVEIIGIEGNKILIKNK -0.198

Specify measured soluble fraction (log2) for HMVPVVGTTIPHEFIGKFGSARVMLKPAVEGSGVIAGGSARAVLELAGYKDIKTKVLGTNNPRNVVYATMN . 0.0414

Supply soluble fraction (log2) value. Item: HMTEEDVVIFSGLSDRDLKMVQTELANSGIKYTLPTSGTVSVPNSEIARAQMVLAMAGIPRS 0.167

Given HMNRIEMTEPIIIKDLSRETGIPWVAIQKRLAQDGIMANINTTIEAEKAQLIAVDYGIELAVV , respond with its soluble fraction (log2). 0.0679

For the sequence HMAQLSDDEQAIIDTITRRGDATMSELIASVNVSTPRLMSMLIDMEFRSLITALPGGRYQIRLIN , give its measured soluble fraction (log2) value. -0.912

Give the value of soluble fraction (log2) reported for the following: HMPALATKDSVLDGRAEVVSYVRDTSVFYLRVRVPQKQGYRSRRIDGVSTLPEAITKALDTYMDLGT -2.57

# return recorded soluble fraction (log2) for entry HMDPVATLTPREREVLELMAEGRTNAGIAEAMVVTEGAVEKHIQRIFAKLGLHADGGVHRRVAAVLALLG -1.01

# return recorded soluble fraction (log2) for input HMNRIARRELMEQLFADNKITTQEQLQQLLRAEGVEVTQATISRDMRILNIVKVSDQNGNTYYKQMK -0.15

Quote soluble fraction (log2) reported for HMDAMGAVGIARAFISAGERGGDISDGLEHMHGKLLRLSSLMYTRSGKKMAARRHELLSSFVQALEEEIK please. -0.174

Answer with the recorded soluble fraction (log2) of HMKEYRKEGHLYFVTEDRNNEIYLWDFTDKPKHEFKEIITSVELQKVAKEGAMLQYKNGKYELYS only. -0.171

Please look at this sequence and report its soluble fraction (log2): HMTISGSDLKAQREALNIPLERIAKETRIRLSILQDLEDEEYSELSSSAQTKGFLRLYADYLSSHKQRLG -0.415

Return the recorded soluble fraction (log2) value; entry: HMNPETIHNDYKAFIKFAFSGLSYYSKVWNQNREMITPGLLETLWQKYRHLSIGEIETILEKIIKEG -1.88

// provenance: the domain aggregation screens of Martell et al. (2025)
